# System Tested: FTO (Homo sapiens (Human))
# Assay Method Text: Fluorescence enzymatic inhibition assay (m6A7-Broccoli RNA / DFHBI-1T) against FTO
# Format: biochemical
# Conditions Used: comparison of enzymatic IC50 values
Readout Kind: selectivity between FTO and ALKBH5

Fill blank: measured selectivity between FTO and ALKBH5 of the compound COc1ncc(-c2ccc(CO)c(OC)c2)cn1 [FTO-6] is ____.
five-fold or higher

Note, next up: COc1ccc2cc(-c3cnc(N)nc3)ccc2c1 [FTO-12]
five-fold or higher

Can you check COCCNc1ncc(-c2ccc(CO)c(OC)c2)cn1 [FTO-20] next?
five-fold or higher

Then this compound: COc1ccc2cc(-c3cncnc3)ccc2c1 [FTO-5, 5-(6-methoxynaphthalen-2-yl)pyrimidine]
five-fold or higher

###

Give measured pIC50 for each item. Keep answers brief.
# System Tested: FTO (Homo sapiens (Human), UniProt Q9C0B1)
# Sequence (Q9C0B1 whole entry): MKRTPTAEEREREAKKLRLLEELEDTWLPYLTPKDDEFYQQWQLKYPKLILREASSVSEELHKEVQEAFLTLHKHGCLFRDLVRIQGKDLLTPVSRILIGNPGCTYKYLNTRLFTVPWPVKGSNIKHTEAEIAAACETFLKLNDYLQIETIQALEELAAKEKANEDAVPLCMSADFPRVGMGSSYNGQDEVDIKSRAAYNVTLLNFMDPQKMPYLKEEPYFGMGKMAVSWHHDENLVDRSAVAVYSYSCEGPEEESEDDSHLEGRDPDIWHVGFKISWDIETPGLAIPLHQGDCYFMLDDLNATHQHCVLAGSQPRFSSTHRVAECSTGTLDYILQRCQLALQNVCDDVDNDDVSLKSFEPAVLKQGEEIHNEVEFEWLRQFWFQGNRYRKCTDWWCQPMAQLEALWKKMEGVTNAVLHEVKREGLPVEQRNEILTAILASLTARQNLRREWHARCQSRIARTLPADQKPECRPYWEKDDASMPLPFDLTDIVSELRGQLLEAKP
# Assay Method Text: Fluorescence enzymatic inhibition assay (m6A7-Broccoli RNA / DFHBI-1T) against FTO
# Format: biochemical
# Conditions Used: Table 800 compounds; read-out: FTO IC50
Keep in mind that pIC50 stands for -log10 of concentration in molar terms.

Record request: pIC50 value, item `CN(CCCN1c2ccccc2CCc2ccccc21)S(=O)(=O)c1ccc(OC(F)(F)F)cc1`
4.23

Here is the next compound: O=S(=O)(NCC1CCCOC1)c1ccc(OC(F)(F)F)cc1 (centres unmarked)
4.71

O=S(=O)(NCC1CCCOC1)c1ccccc1 (centres unmarked) , same question.
5.19

###

# Assay Method Text: elogD / log D determination
Assign class by elogD: not lower than 1 means 1 (yes); lower than 1 means 0 (no).

Reported elogD at or above 1? `Cc1ccc(CNCC2(N3CCCC3)COC2)cc1C`
0 (no)

Entry to check: `c1cc2cc(CNCC3(N4CCCC4)COC3)ccc2[nH]1`
0 (no)

What do you have for `FC(F)(F)Sc1ccc(CNCC2(N3CCCC3)COC2)cc1` ?
1 (yes)

Next: FC1CCN(C2(CNCc3ccc(-c4ccccc4)o3)COC2)C1 (stereo not shown)
1 (yes)

What about `COc1cccc2c(CNCC3(N4CCCC4)COC3)c[nH]c12` ?
0 (no)

Now try Fc1ccc2[nH]cc(CNCC3(N4CCC(F)C4)COC3)c2c1 (stereo not shown) .
1 (yes)

Now consider `c1ccc(-c2ccc(CNCC3(N4CCCC4)COC3)o2)cc1` .
1 (yes)

Now try `c1ccc(-c2ccc(CNCC3(N4CCCC4)COC3)s2)cc1` .
1 (yes)

Also need `c1cc2c(cc1CNCC1(N3CCCC3)COC1)OCCO2` , thanks.
0 (no)

###

For each record, write down the corresponding pKi.
# System Tested: YTHDF2 (Homo sapiens (Human))
# Sequence (Q9Y5A9 whole entry): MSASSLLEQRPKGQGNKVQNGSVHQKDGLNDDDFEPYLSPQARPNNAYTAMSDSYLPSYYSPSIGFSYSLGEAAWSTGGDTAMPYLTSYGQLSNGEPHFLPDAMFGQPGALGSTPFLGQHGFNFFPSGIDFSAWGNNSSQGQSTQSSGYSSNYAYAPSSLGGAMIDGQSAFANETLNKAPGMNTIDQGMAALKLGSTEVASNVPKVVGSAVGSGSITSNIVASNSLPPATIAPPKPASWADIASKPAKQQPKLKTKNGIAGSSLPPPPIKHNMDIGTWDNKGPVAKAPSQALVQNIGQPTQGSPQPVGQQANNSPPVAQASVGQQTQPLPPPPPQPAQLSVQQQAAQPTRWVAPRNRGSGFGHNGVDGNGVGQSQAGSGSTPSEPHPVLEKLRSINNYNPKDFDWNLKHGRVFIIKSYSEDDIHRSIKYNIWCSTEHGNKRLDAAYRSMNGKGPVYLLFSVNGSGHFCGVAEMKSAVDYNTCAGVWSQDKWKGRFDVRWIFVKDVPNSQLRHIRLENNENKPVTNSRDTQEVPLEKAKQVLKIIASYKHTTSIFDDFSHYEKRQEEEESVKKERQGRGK
# Assay Method Text: In vitro FRET assay for binding affinities of YTH inhibitors, YTHDF2
# Conditions Used: Ki values for YTH library against YTHDF2; read-out: Ki
As a rule, pKi stands for the negative log10 of the concentration, concentration in M.

Report pKi for CC(Nc1ccc(CNC2CC2)cn1)c1ccccc1 (stereo not shown) [TR-YTH-04] tested on YTHDF2 (Homo sapiens (Human)).
10.00

Also c1cncc(CNc2ccc(CNC3CC3)cn2)c1 [TR-YTH-05] , if possible.
10.15

And CN(C)Cc1ccc(NCc2ccc(C(F)(F)F)cc2)nc1 [TR-YTH-20] ?
9.58

Ok, now Cc1ccc(Nc2ccc(CNC3CC3)cn2)cc1C [TR-YTH-12]
9.07

###

# System Tested: YTHDF2 (Homo sapiens (Human))
# Assay Method Text: In vitro FRET assay for binding affinities of YTH inhibitors, YTHDF2
# Conditions Used: Ki values for YTH library against YTHDF2; read-out: Ki
# Description: FIG. 8-2 depicts possible design and synthesis of compound libraries. In Vitro FRET assay development could yield a high throughput FRET assay to determine binding affinities for potential YHT inhibitors against YTHDF1, YTHDF2, YTHDF3, or other similar proteins.
Assign pKi to each entry below.
Note on units: pKi is unitless, being -log10 of a concentration expressed in mol/L.

Give the reported pKi for CC(Nc1ccc(CN(C)C)cn1)c1ccccc1 (stereo not drawn) (system: YTHDF2 (Homo sapiens (Human))).
10.02

Consider next the molecule `Fc1cccc(F)c1CNc1ccc(CNC2CC2)cn1` in the same way.
9.76

Same thing, different molecule: `COc1ccc(CNc2ccc(CNC3CC3)cn2)cc1`
9.99

// next record `COc1ccc(CNc2ccc(CNC3CC3)cn2)c(OC)c1`
9.74

Same again, this time with `CN(C)Cc1ccc(NCc2ccc(F)cc2)nc1`
9.97

Another molecule: `Fc1ccc(CNc2ccc(CNC3CC3)cn2)cc1F`
9.40

###

Give IC50 for every item shown.
# System Tested: FTO (Homo sapiens (Human), UniProt Q9C0B1)
# Assay Method Text: Fluorescence enzymatic inhibition assay (m6A7-Broccoli RNA / DFHBI-1T) against FTO
# Format: biochemical
# Conditions Used: m6A7-Broccoli fluorescence assay, 0.250 μM FTO, inhibitor up to 40 μM, triplicate; read-out: Enzymatic IC50 FTO
// units = µM; emit number, no label

What value of measured IC50 is listed for Fc1cccc2[nH]cc(CNCC3(N4CCCC4)COC3)c12 [TR-FTO-17] ?
1.3

Repeat for the following compound: FC(F)(F)c1cccc(CNCC2(N3CCCC3)COC2)c1 [TR-FTO-02]
4.3

What do we get for Nc1ncc(-c2ccc3cc(O)ccc3c2)cn1 [FTO-10, 6-(2-aminopyrimidin-5-yl)naphthalen-2-ol] ?
48.1

And the next one, COc1ncc(-c2ccc(CO)c(OC)c2)cn1 [FTO-6] ?
13.8

Next compound up: COCCNc1ncc(-c2ccc3nc(C)ccc3c2)cn1 [FTO-19]
25.2

Then this compound: FC1CCN(C2(CNCc3c[nH]c4ccccc34)COC2)C1 (stereo not shown) [TR-FTO-47]
2.1

# iterate: COc1ncc(-c2ccc3nc(C)ccc3c2)cn1 [FTO-11]
11.3

Again, but for Cc1ccc2cc(-c3cnc(N)nc3)ccc2n1 [FTO-14]
59.6

Thanks! And COc1ccc2cc(-c3cncnc3)ccc2c1 [FTO-5, 5-(6-methoxynaphthalen-2-yl)pyrimidine] ?
13.4

Another compound to check: COc1ccc2cc(-c3cnc(N)nc3)ccc2c1 [FTO-12]
18.3

###

# Assay Method Text: elogD / log D determination
# Conditions Used: Table 800 compounds
Hi there, I'd appreciate the recorded elogD for every entry that follows.
Lab note: write the figure by itself, no unit.

Consider the compound shown here: `O=S(=O)(Nc1cccc(O)c1)c1ccc(OC(F)(F)F)cc1` What is its recorded elogD?
1.60

Request: `O=S(=O)(Nc1nccnc1O)c1ccc(OC(F)(F)F)cc1`
2.33

How about `O=S(=O)(Nc1cc(Cl)ccc1O)c1ccc(OC(F)(F)F)cc1` ?
0.88

What do you have for `C[C@@H](NS(=O)(=O)c1ccc(OC(F)(F)F)cc1)c1cccnc1` ?
0.83

Same question, `O=S(=O)(Nc1ccc(F)c(Cl)c1)c1ccc(OC(F)(F)F)cc1` this time
2.58

Can you check `CN(CCCN1c2ccccc2CCc2ccccc21)S(=O)(=O)c1ccc(OC(F)(F)F)cc1` next?
2.05

Would you kindly repeat that for `O=S(=O)(NCc1ccccn1)c1ccc(OC(F)(F)F)cc1` ?
2.25

And the next one, `O=S(=O)(Nc1ccc(Cl)c(Cl)c1)c1ccc(OC(F)(F)F)cc1` ?
1.24

Please answer likewise for `Cc1ccc(NS(=O)(=O)c2ccc(OC(F)(F)F)cc2)cc1C`
0.60

###

# System Tested: YTHDF2 (Homo sapiens (Human))
# Assay Method Text: In vitro FRET assay for binding affinities of YTH inhibitors, YTHDF2
# Conditions Used: read-out: Ki YTHDF2
Field 'label' (enum: TRUE / FALSE). Set to TRUE when Ki is strictly under 0.1 nM; else FALSE.

Lab note: confirm whether the reported Ki for this molecule is below 0.1 nM, equality not counting. molecule: `FC(F)(F)c1ccc(CNc2ccc(CNC3CC3)cn2)cc1`
TRUE

Subsequent entry: CC(Nc1ccc(CN(C)C)cn1)c1ccccc1 (stereo not shown)
TRUE

And then `Cc1ccc(Nc2ccc(CNC3CC3)cn2)cc1C` , what is it?
FALSE

Check `Fc1ccnc(Nc2ccc(CNC3CC3)cn2)c1` too.
FALSE

Next: `COc1ccc(CNc2ccc(CNC3CC3)cn2)cc1OC`
TRUE

How about `CN(Cc1ccc(C(F)(F)F)cc1)c1ccc(CNC2CC2)cn1` ?
FALSE

Also `COc1ccc(CNc2ccc(CNC3CC3)cn2)c(OC)c1` ?
FALSE

Can you check `CN(C)Cc1ccc(NCc2ccc(C(F)(F)F)cc2)nc1` next?
FALSE

Would you mind doing `Fc1cccc(F)c1CNc1ccc(CNC2CC2)cn1` as well?
FALSE
